System: pY641-STAT6 in Peripheral Blood Mononuclear Cells (PBMC)
Experiment: MSD-pSTAT-PBMC Assay (pSTAT6, IL-4 stimulated)
Assay type: cell-based, Human
Conditions: Homo sapiens, compound 3 hrs, then 1 ng/mL IL-4 for 10 min
Protocol: Cryopreserved Peripheral Blood Mononuclear Cells (PBMC) are from AllCells. Recombinant Human IL-4 and IL-6 are from Peprotech. […] Cryopreserved PBMCs were thawed out and allowed to recover overnight in IMDM+10% heat-inactivated FBS prior to plating 50,000 (STAT3) or 25,000 (STAT6) cells per well in 96-well U-bottom tissue culture plates. […] Assay plates were then washed and 150 μL of 1× Read Buffer-T (MSD) was added to each well prior to reading on an SQ120 MSD Plate Reader. […]
readout.name: IC50

// fetch pY641-STAT6 in Peripheral Blood Mononuclear Cells (PBMC) IC50 for CCCOC(=O)[C@H](C)NP(=O)(Oc1ccccc1)C(F)c1ccc2ccc(C(=O)N[C@H]3CN(C(C)=O)CC[C@H]4CC[C@@H](C(=O)N5CCC(c6cccnc6)C5)N4C3=O)cc2c1 (stereo partly drawn) [Compound 409]
1000 to 3000 nM

Entry to check: CCCOC(=O)[C@H](C)NP(=O)(Oc1ccccc1)[C@@H](F)c1ccc2ccc(C(=O)N[C@H]3CN(C(=O)c4noc5ccc(C)cc45)CC[C@H]4CC[C@@H](C(=O)N5C(=O)N(c6cccnc6)C(=O)C56CC6)N4C3=O)cc2c1 (stereo partly drawn) [Compound 418]
≤ 100 nM

Further, for CNC(=O)[C@@H]1CC[C@@H]2CCN(C(=O)c3n[nH]c4ccc(C)cc34)C[C@H](NC(=O)c3ccc4ccc(C(F)(F)P(=O)(OCOC(=O)OC(C)C)OCOC(=O)OC(C)C)cc4c3)C(=O)N21 [Compound 328] ?
100 to 1000 nM

Same thing, different molecule: CC(=O)N1CC[C@H]2CC[C@@H](C(=O)N(C)c3ccccc3)N2C(=O)[C@@H](NC(=O)c2ccc3ccc(C(F)(F)P(=O)(OCOC(=O)C(C)(C)C)OCOC(=O)C(C)(C)C)cc3c2)C1 [Compound 321]
≤ 100 nM

Now this one: CCN1CC[C@H]2CC[C@@H](C(=O)N3C[C@@H](C#N)[C@H](c4ccccc4)C3)N2C(=O)[C@@H](NC(=O)c2cc3cc(C(F)(F)P(=O)(OCCSC(=O)C(C)(C)C)OCCSC(=O)C(C)(C)C)ccc3s2)C1 (single isomer, unassigned) [Compound 330]
1000 to 3000 nM

Continue with CCCOC(=O)[C@H](C)NP(=O)(Oc1ccccc1)C(F)c1ccc2ccc(C(=O)N[C@H]3CN(C(=O)c4noc5ccc(C)cc45)CC[C@H]4CC[C@@H](C(=O)N5CCOC(Cc6ccccc6)C5)N4C3=O)cc2c1 (stereo partly drawn) [Compound 415]
100 to 1000 nM

---

target: Recombinant STAT6 protein (STAT6(W123-T658)) (Homo sapiens); construct: Recombinant STAT6 protein (STAT6(W123-T658)); test: STAT6 Fluorescence Polarization (FP) Assay; conditions: STAT6(W123-T658) 250 nM, probe 5-FAM-ApYKPFQDLI-NH2 2 nM, 45-minute incubation
Sequence (P42226 123-658): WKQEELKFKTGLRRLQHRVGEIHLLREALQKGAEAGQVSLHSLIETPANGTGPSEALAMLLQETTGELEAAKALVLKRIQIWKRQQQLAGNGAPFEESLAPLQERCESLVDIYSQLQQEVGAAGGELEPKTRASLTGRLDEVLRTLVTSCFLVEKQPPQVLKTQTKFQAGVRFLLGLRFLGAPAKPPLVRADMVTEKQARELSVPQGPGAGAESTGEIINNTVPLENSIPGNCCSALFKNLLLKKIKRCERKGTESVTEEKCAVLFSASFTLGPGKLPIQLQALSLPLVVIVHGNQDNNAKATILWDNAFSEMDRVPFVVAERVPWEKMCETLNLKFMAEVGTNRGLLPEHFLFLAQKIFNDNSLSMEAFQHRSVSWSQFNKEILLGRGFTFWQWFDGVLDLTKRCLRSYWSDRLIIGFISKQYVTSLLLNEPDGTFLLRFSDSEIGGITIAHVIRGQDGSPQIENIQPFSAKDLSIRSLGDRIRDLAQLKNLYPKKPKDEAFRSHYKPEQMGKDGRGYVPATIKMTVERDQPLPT
readout.name: IC50

Take a look at these entries with their results.
- molecule: "COc1ccc2onc(C(=O)N3CC[C@H]4CC[C@@H](C(=O)N5CCOCC5)N4C(=O)[C@@H](NC(=O)c4ccc5ccc(C(F)P(=O)(O)O)cc5c4)C3)c2c1 (some centres unmarked) [Compound 362]"
  target: "Recombinant STAT6 protein (STAT6(W123-T658)) (Homo sapiens)"
  recorded.result: "≤ 0.3 µM"
- molecule: "CC(=O)N1CC[C@H]2CC[C@@H](C(=O)N3C[C@@H](C#N)[C@](C)(c4ccccc4)C3)N2C(=O)[C@@H](NC(=O)c2cc3cc(C(F)(F)P(=O)(O)O)ccc3s2)C1 (relative stereo) [Compound 152]"
  target: "Recombinant STAT6 protein (STAT6(W123-T658)) (Homo sapiens)"
  recorded.result: "≤ 0.3 µM"
- molecule: "CC(=O)N1CC[C@H]2CC[C@@H](C(=O)N3CCC(C(=O)N4CCCCC4)CC3)N2C(=O)[C@@H](NC(=O)c2cc3cc(C(F)(F)P(=O)(O)O)ccc3s2)C1 [Compound 192]"
  target: "Recombinant STAT6 protein (STAT6(W123-T658)) (Homo sapiens)"
  recorded.result: "3 to 30 µM"
- molecule: "CC(=O)N1CC[C@H]2CC[C@@H](C(=O)N3CC(C#N)C4(CCC4)C3)N2C(=O)[C@@H](NC(=O)c2cc3cc(C(F)(F)P(=O)(O)O)ccc3s2)C1 (some centres unmarked) [Compound 64]"
  target: "Recombinant STAT6 protein (STAT6(W123-T658)) (Homo sapiens)"
  recorded.result: "0.3 to 3 µM"

Recorded IC50 of CN1CCN(c2ccccc2CN2CC[C@H]3CC[C@@H](C(=O)N4CC(c5cccnc5)C4)N3C(=O)[C@@H](NC(=O)c3cc4cc(C(F)(F)P(=O)(O)O)ccc4s3)C2)CC1 [Compound 274] , please.
3 to 30 µM

Continue with COC(=O)N1CC[C@H]2CC[C@@H](C(=O)N3C[C@H](c4ccccc4)[C@@H](C#N)C3)N2C(=O)[C@@H](NC(=O)c2cc3cc(C(F)(F)P(=O)(O)O)ccc3s2)C1 (relative stereo) [Compound 250]
≤ 0.3 µM

Same for O=C(N[C@H]1CN(Cc2ccccc2-n2cncn2)CC[C@H]2CC[C@@H](C(=O)N3CC(c4cccnc4)C3)N2C1=O)c1cc2cc(C(F)(F)P(=O)(O)O)ccc2s1 [Compound 402]
3 to 30 µM

How about C[C@@H](Cc1ccccc1)C(=O)N1CC[C@H]2CC[C@@H](C(=O)N3CCCC3)N2C(=O)[C@@H](NC(=O)c2cc3cc(C(F)(F)P(=O)(O)O)ccc3s2)C1 [Compound 258] ?
0.3 to 3 µM

Then this molecule: COC(=O)[C@@H]1CN(C(=O)[C@@H]2CC[C@@H]3CCN(CC(F)F)C[C@H](NC(=O)c4cc5cc(C(F)(F)P(=O)(O)O)ccc5s4)C(=O)N32)C[C@H]1c1ccccc1 (single isomer, unassigned) [Compound 247]
≤ 0.3 µM

# repeat for CC(=O)N1CC[C@H]2CC[C@@H](C(=O)Nc3ccc(-c4ccccc4)cc3)N2C(=O)[C@@H](NC(=O)c2cc3c(F)c(C(F)(F)P(=O)(O)O)ccc3s2)C1 [Compound 48]
0.3 to 3 µM

Continue with CC(=O)N1CC[C@H]2CC[C@@H](C(=O)N(C)c3ccc4nnccc4c3)N2C(=O)[C@@H](NC(=O)c2ccc3ccc(C(F)(F)P(=O)(O)O)cc3n2)C1 [Compound 118]
0.3 to 3 µM

Another molecule to look at: CC(=O)N1CC[C@H]2CC[C@@H](C(=O)N3C[C@@H](C#N)[C@]4(C3)C(=O)Nc3ccccc34)N2C(=O)[C@@H](NC(=O)c2cc3cc(C(F)(F)P(=O)(O)O)ccc3s2)C1 (single isomer, unassigned) [Compound 12]
≤ 0.3 µM

// repeat for CC(=O)N1CCC(NC(=O)c2ccc3ccc(C(F)(F)P(=O)(O)O)cc3c2)C(=O)N2C(CCC2C(=O)N2CC(C#N)C(c3ccccc3)C2)C1 (mixture of isomers) [Compound 4] and report
≤ 0.3 µM

---

molecular target: Recombinant STAT3 protein (STAT3(G127-I722)) (Homo sapiens, UniProt P40763); construct: Recombinant STAT3 protein (STAT3(G127-I722)); test: STAT3 Fluorescence Polarization (FP) Assay; settings: STAT3(G127-I722) 25 nM, probe 5-FAM-GpYLPQTV-NH2 2 nM, 45-minute incubation
Sequence (P40763 127-722): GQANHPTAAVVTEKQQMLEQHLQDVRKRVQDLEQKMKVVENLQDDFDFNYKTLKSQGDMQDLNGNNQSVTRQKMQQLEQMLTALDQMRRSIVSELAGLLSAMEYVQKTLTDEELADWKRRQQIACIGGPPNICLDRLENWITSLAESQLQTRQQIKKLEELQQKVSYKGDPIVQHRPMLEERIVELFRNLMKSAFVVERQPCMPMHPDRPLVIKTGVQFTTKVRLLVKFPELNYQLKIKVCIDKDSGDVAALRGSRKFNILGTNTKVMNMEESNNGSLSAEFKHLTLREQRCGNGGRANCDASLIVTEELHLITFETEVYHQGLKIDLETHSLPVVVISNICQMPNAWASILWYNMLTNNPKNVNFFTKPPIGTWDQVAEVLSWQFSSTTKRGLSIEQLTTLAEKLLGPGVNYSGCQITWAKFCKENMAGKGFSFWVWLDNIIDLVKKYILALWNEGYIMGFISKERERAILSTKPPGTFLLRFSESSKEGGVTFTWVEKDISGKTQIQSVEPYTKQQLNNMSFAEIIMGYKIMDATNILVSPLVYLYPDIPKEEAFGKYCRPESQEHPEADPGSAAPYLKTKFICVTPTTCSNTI
readout.name: IC50

Worked set:
- compound: "CC(=O)N1CC[C@H]2CC[C@@H](C(=O)N3C[C@@H](C#N)[C@]4(C3)C(=O)Nc3ccccc34)N2C(=O)[C@@H](NC(=O)c2cc3cc(C(F)(F)P(=O)(O)O)ccc3s2)C1 (single isomer, unassigned)"
  readout.name: "IC50"
  recorded.result: "≤ 100 nM"
- compound: "CC(=O)N1CC[C@H]2CC[C@@H](C(=O)N3Cc4cnn(-c5ncccn5)c4C3)N2C(=O)[C@@H](NC(=O)c2cc3cc(C(F)(F)P(=O)(O)O)ccc3s2)C1"
  readout.name: "IC50"
  recorded.result: "1000 to 10000 nM"

Test system Recombinant STAT3 protein (STAT3(G127-I722)) (Homo sapiens, UniProt P40763); read-out IC50; what value for N#Cc1cccc(C2CN(C(=O)[C@@H]3CC[C@@H]4CCN(Cc5ncccn5)C[C@H](NC(=O)c5cc6cc(C(F)P(=O)(O)O)ccc6s5)C(=O)N43)C2)n1 (stereo partly shown) ?
≤ 100 nM

Repeat with CC(=O)N1CC[C@H]2CC[C@@H](C(=O)N3C[C@@H](C#N)[C@H](C4CCCCC4)C3)N2C(=O)[C@@H](NC(=O)c2cc3cc(C(F)(F)P(=O)(O)O)ccc3s2)C1 (relative stereo)
1000 to 10000 nM
